Each entry below lists one item and its recorded phosphorylation enrichment value.
test.system: Fyn (UniProt P06241)
Sequence (P06241 whole entry, looked up): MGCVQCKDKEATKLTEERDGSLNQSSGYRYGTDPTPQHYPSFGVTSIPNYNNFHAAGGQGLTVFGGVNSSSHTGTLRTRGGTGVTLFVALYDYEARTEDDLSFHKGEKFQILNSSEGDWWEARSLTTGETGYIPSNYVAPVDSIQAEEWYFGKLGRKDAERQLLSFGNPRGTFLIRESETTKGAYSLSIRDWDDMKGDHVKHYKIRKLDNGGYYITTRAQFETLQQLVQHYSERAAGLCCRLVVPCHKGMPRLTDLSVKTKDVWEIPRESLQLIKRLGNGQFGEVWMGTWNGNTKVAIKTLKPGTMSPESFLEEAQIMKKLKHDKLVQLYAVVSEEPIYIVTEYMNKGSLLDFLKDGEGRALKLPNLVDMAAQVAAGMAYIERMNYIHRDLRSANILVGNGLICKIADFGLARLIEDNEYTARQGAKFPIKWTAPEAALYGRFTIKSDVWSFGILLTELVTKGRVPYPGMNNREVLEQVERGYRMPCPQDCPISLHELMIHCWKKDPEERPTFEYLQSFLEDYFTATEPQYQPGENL
assay.explanation: phosphorylation enrichment, bacterial display (enrichment ratio); higher = better substrate or ligand; peptides without Tyr show the background
A bare number is all that is needed in reply.

As a guide, the following entries are already answered.
{"residue.string": "ALAAPYVLYPS [CEFIP_Y1332_G1337S]", "test.system": "Fyn (UniProt P06241)", "phosphorylation enrichment": 0.697}
{"residue.string": "AFDNLYFWDQD [ERBB2_Y1221_YF]", "test.system": "Fyn (UniProt P06241)", "phosphorylation enrichment": 5.76}
{"residue.string": "CTLLPYYSAPV [DGKE_Y269_R273P]", "test.system": "Fyn (UniProt P06241)", "phosphorylation enrichment": 0.792}
{"residue.string": "ETCLAYMEKRI [TEKT1_Y118_R119M]", "test.system": "Fyn (UniProt P06241)", "phosphorylation enrichment": 0.517}
{"residue.string": "SSPVLYLSPET [TJP1_Y931_P930L]", "test.system": "Fyn (UniProt P06241)", "phosphorylation enrichment": 0.534}

Q: Using the record for ELAKFYKLHHI [AK7_Y391_N389K_YF] , report its phosphorylation enrichment.
A: 0.566

Q: Item: TEAGDYKLCFD [TMED1_Y103]
A: 0.598

Q: Item: AGVDRYSLGTS [C5orf42_Y1451_P1446A]
A: 0.361

###

test.system: Fes (UniProt P07332)
Sequence (P07332 whole entry, looked up): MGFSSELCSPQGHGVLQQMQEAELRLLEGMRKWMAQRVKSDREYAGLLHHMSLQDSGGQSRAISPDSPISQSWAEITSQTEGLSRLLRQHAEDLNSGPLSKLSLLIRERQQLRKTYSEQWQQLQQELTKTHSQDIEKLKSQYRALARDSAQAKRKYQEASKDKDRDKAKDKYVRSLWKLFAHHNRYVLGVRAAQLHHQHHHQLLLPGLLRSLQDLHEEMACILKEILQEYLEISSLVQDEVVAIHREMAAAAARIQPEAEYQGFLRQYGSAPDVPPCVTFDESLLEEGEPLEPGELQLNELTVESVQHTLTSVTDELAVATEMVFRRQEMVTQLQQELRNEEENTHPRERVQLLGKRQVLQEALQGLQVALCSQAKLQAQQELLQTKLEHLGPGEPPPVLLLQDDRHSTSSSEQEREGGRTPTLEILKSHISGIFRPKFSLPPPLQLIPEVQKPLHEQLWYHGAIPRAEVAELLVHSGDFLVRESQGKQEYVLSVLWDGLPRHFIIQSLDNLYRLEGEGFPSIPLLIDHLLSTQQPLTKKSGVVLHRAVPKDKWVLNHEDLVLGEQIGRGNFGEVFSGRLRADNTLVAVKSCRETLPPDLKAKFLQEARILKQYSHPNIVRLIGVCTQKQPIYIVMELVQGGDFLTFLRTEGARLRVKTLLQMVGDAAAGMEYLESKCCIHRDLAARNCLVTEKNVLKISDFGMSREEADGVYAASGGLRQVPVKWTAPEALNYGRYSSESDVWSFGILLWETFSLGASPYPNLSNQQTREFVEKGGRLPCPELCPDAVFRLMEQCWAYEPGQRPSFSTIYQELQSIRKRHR
assay.explanation: phosphorylation enrichment, bacterial display (enrichment ratio); higher = better substrate or ligand; peptides without Tyr show the background
phosphorylation enrichment below 0.9 gives -1; phosphorylation enrichment at or above it gives 1.

{"residue.string": "AFDNLYFWDQD [ERBB2_Y1221_YF]", "answer.label": 1}
{"residue.string": "RMETAYGPSVT [MXRA5_Y2717_E2716A]", "answer.label": -1}
{"residue.string": "GGPTFYIDTNA [ACTL6A_Y69_YF]", "answer.label": 1}
{"residue.string": "GSPAPYRRRKR [MBD1_Y403_P401A]", "answer.label": -1}

Q: Check if phosphorylation enrichment >= 0.9 (inclusive). Item: LSALDYKIFFF [WDPCP_Y210_YF]
A: 1

Q: Item: PDKRIYQFTAA [SKAP2_Y197]
A: -1

Q: Item: FADIAYNFRQG [PAH_Y166_H170Q_YF]
A: -1

Q: Item: WQLEIYRASRP [ERCC4_Y594_R589W]
A: 1

Q: Item: FPSLPYSPVSS [CAMKK2_Y128_C123Y_YF]
A: -1

Q: Item: IFHENYNAGTY [CFI_Y421]
A: 1

Q: Item: LNAGAYSKVVE [PPT1_Y172_Q177E]
A: -1

Q: Item: QRKPSYNQLPS [BRCA2_Y71_A75P]
A: -1

Q: Item: YEDALYTVLHR [UNC13D_Y61]
A: 1

Q: Item: DSKIRYLSADS [TTF1_Y476_E473K]
A: -1

Q: Item: TGNPAYRSFSN [IL4R_Y497_A492T]
A: -1

Q: Item: KDGSGYISAAE [CALM1_Y100_N98S]
A: -1

Q: Item: FQKNSYSEELR [LMNA_Y211_I210S]
A: -1

###

test.system: SHP2-C SH2
assay.explanation: SH2 binding enrichment of the phosphorylated peptide, bacterial display (enrichment ratio); higher = better substrate or ligand; peptides without Tyr show the background
Each entry below lists one item and its recorded SH2 binding enrichment value.
A bare number is all that is needed in reply.

As a guide, the following entries are already answered.
{"residue.string": "PKEQRYSFLQN [GH1_Y68_K67R]", "recorded.result": 1.11}
{"residue.string": "AKLDIYKRKVE [VWA3B_Y918_N916D]", "recorded.result": 0.732}
{"residue.string": "DRPASYLEKVR [KRT13_Y118_L115P]", "recorded.result": 1.03}
{"residue.string": "VLDCHYPEDEV [C1QBP_Y188]", "recorded.result": 0.929}

Q: API: value(readout= SH2 binding enrichment, system= SHP2-C SH2, query= YEDALYTVLHR [UNC13D_Y61] );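 further: peptide library displayed on the E. coli surface as eCPX fusions, selected cells deep-sequenced, score is each peptide's frequency after selection divided by its frequency in the input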
A: 0.46

Q: Item: TRDTDYQMTKR [ADA_Y308_L304R]
A: 0.447

Q: Item: TLQSMYGCDVG [HLA-B_Y123]
A: 0.812

Q: Item: VKMLLYTEVTR [GDI1_Y93]
A: 0.706

Q: Item: ADKSAYLMGVN [MYH7_Y386_L390V]
A: 0.594

Q: Item: LKFAIYFEVRE [LAMA2_Y1258_A1261V_YF]
A: 1.11

Q: Item: KRLDGYVLEGR [IGSF9_Y656]
A: 0.518

Q: Item: AFEQQYSPIPK [NOX1_Y373_R378K]
A: 0.569

Q: Item: TEALYYTDDPA [ADPRS_Y75_T79P]
A: 0.48

Q: Item: PELINCHQHNS [BTK_Y361_Y361C]
A: 0.919

###

test.system: Jak2 (UniProt O60674)
Sequence (O60674 whole entry, looked up): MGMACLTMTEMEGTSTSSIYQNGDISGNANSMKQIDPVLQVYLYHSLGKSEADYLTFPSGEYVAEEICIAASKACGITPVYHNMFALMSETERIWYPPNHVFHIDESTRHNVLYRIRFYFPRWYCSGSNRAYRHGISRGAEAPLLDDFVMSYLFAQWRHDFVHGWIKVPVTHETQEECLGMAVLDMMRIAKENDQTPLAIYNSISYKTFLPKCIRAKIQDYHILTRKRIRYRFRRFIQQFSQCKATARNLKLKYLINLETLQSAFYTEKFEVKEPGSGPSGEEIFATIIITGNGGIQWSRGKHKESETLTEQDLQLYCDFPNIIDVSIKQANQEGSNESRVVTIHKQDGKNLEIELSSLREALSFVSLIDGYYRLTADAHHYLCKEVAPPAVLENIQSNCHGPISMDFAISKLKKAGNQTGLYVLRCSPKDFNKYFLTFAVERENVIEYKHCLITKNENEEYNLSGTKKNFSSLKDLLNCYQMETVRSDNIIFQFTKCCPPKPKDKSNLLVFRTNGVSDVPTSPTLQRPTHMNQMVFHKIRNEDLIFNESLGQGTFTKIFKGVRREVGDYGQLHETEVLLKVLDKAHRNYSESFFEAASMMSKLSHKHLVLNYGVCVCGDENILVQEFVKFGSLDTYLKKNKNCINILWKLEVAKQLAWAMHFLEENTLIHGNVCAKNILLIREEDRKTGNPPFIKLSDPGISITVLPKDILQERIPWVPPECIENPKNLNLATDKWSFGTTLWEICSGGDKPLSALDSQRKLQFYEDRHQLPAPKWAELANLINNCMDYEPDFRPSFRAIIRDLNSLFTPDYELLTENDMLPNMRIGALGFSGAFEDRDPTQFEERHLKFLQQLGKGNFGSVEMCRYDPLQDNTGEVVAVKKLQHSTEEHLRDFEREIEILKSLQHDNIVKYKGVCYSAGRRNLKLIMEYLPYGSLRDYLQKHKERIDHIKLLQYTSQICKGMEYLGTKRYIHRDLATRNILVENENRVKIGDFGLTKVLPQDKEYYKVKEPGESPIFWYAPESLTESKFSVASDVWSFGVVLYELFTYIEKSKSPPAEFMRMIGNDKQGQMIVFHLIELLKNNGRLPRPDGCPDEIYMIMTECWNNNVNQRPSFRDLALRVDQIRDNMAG
assay.explanation: phosphorylation enrichment, bacterial display (enrichment ratio); higher = better substrate or ligand; peptides without Tyr show the background
Please map values of phosphorylation enrichment to classes as shown: bin 1: < 0.7; bin 2: ≥ 0.7 and < 1; bin 3: ≥ 1

{"residue.string": "VSSSDYFSFVL [USP24_Y2138_Y2134S]", "answer.label": "bin 3"}
{"residue.string": "RGDVIYKGFED [NFU1_Y194_G189R]", "answer.label": "bin 2"}
{"residue.string": "GGGGGYNRSSG [FUS_Y232]", "answer.label": "bin 1"}
{"residue.string": "ADCRFYTFPQM [GAMT_Y223_A224T_YF]", "answer.label": "bin 3"}
{"residue.string": "YAFQLYDLDRD [CHP2_Y123]", "answer.label": "bin 2"}

Q: Which of the defined bands does the recorded phosphorylation enrichment of LVVFEYMRHGD [NTRK1_Y591_M587V] sit within?
A: bin 2

Q: Item: TEAGDYKLCFD [TMED1_Y103]
A: bin 3

Q: Item: VATRWYRSPEP [CDKL5_Y177_L182P]
A: bin 1

###

test.system: EPHB2 (UniProt P29323)
Sequence (P29323 whole entry, looked up): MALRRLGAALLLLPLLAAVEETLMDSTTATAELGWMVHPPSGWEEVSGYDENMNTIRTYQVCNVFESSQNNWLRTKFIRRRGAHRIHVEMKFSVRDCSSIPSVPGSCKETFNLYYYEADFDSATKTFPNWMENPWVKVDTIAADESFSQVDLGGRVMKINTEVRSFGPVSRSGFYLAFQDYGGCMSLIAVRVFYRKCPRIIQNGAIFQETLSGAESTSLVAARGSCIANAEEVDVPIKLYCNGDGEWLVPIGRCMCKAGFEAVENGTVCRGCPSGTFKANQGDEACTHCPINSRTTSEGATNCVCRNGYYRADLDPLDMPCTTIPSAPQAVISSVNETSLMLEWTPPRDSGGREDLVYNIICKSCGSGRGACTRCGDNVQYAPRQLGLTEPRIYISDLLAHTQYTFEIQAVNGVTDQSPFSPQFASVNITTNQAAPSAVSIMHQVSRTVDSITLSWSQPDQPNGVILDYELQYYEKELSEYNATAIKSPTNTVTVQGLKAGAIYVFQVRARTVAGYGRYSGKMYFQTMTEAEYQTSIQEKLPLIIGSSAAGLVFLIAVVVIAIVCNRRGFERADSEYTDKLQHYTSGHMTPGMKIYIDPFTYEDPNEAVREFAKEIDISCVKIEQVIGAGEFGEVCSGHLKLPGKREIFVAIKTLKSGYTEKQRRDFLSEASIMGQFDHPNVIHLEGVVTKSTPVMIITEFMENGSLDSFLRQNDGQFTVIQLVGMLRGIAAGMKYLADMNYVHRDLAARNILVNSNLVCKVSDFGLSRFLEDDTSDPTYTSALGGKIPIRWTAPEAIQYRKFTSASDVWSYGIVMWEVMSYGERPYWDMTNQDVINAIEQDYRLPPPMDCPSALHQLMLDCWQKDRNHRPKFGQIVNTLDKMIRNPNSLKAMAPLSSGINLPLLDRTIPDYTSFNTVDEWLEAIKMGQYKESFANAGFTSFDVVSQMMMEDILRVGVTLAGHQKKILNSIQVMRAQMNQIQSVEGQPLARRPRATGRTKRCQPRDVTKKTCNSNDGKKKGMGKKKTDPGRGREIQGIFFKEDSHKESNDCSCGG
assay.explanation: phosphorylation enrichment, bacterial display (enrichment ratio); higher = better substrate or ligand; peptides without Tyr show the background
phosphorylation enrichment below 0.6 gives Criterion not met; phosphorylation enrichment at or above it gives Criterion met.

{"residue.string": "PESIPYRKFTT [NTRK1_Y701_L700P]", "answer.label": "Criterion met"}
{"residue.string": "RFLERDIFNRE [HLA-DPB1_Y57_Y57D_YF]", "answer.label": "Criterion not met"}

Q: Check if phosphorylation enrichment >= 0.6 (inclusive). Item: MSRFIYSTDFF [NTRK1_Y676_D674Y_YF]
A: Criterion met

Q: Item: RDSQLYAVDFE [MRPS34_Y34_YF]
A: Criterion met

Q: Item: NHYKIYNLYAE [PTEN_Y68_C71Y]
A: Criterion met

###

Each entry below lists one item and its recorded phosphorylation enrichment value.
System: AncSZ
assay.explanation: phosphorylation enrichment, bacterial display (enrichment ratio); higher = better substrate or ligand; peptides without Tyr show the background
A bare number is all that is needed in reply.

As a guide, the following entries are already answered.
{"residue.string": "IKGIRYLHHRG [GUCY2D_Y656]", "recorded.result": 0.466}
{"residue.string": "VLDCHYPEDEV [C1QBP_Y188]", "recorded.result": 1.22}
{"residue.string": "LLARLYRGQAL [FGFR4_Y390_G388R]", "recorded.result": 0.9}
{"residue.string": "DSKIRYLSADS [TTF1_Y476_E473K]", "recorded.result": 0.503}
{"residue.string": "RLDRSYSYSYS [PEAR1_Y890]", "recorded.result": 0.655}

Q: Using the record for MLEVSYVDRNS [F10_Y384_P383S] , report its phosphorylation enrichment.
A: 0.651

Q: Item: SGIFQYNIAKF [FOXL2_Y83_I84N_YF]
A: 0.786

Q: Item: MSRFIYSTDFF [NTRK1_Y676_D674Y_YF]
A: 0.887

Q: Item: CKLFQYFLDHL [ATRX_Y1849_YF]
A: 1.37

###

test.system: Hck (UniProt P08631)
Sequence (P08631 whole entry, looked up): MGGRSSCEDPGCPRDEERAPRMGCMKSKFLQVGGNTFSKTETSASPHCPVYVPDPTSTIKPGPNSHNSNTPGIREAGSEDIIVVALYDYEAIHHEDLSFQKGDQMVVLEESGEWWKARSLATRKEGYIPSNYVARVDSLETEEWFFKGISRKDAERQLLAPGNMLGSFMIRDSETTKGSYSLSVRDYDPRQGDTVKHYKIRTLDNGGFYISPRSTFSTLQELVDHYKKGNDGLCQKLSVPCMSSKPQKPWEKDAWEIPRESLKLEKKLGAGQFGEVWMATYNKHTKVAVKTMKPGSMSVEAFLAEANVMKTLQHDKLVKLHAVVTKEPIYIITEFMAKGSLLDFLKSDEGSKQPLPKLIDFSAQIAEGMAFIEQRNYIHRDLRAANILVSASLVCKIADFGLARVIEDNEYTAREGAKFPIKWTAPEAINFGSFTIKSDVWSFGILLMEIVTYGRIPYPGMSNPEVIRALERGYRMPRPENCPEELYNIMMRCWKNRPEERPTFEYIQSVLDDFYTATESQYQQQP
assay.explanation: phosphorylation enrichment, bacterial display (enrichment ratio); higher = better substrate or ligand; peptides without Tyr show the background
Each entry below lists one item and its recorded phosphorylation enrichment value.
A bare number is all that is needed in reply.

As a guide, the following entries are already answered.
{"residue.string": "KSSDVYVSYDC [SORL1_Y136_Y141C]", "phosphorylation enrichment": 1.87}
{"residue.string": "PRPAGYPSMVS [CACNA1C_Y1832_T1835M]", "phosphorylation enrichment": 0.456}
{"residue.string": "RASQEYHIVKK [PDZD2_Y557_S552R]", "phosphorylation enrichment": 0.607}

Q: Using the record for PMWHPYKVDVT [TP53TG5_Y255] , report its phosphorylation enrichment.
A: 0.5

Q: Item: RNFVRYVQGLK [VWF_Y1400]
A: 0.339

Q: Item: INMKEYCKKDF [NTN1_Y490_K489E_YF]
A: 0.498

Q: Item: HEEDNYIEMIP [NWD2_Y566_L569M]
A: 0.822
